study-system: monkey GPC3-His protein (monkey)
assay-details: ELISA, monkey GPC3-His coated; antibody 66.66 nM
Reported OD450 nm values for the following binders.
recorded-endpoint: OD450 nm

1) hAb006LH1L1a (antibody, human IgG1, V domains shown) VH: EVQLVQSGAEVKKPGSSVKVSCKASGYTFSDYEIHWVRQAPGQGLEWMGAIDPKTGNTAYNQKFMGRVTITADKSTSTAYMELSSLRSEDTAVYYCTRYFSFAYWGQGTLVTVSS VL: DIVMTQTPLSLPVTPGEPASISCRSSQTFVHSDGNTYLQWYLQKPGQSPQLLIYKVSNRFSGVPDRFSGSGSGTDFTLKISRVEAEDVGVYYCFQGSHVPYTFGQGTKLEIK; 2.08
2) hAb007LH2L1a (antibody, human IgG1, V domains shown) VH: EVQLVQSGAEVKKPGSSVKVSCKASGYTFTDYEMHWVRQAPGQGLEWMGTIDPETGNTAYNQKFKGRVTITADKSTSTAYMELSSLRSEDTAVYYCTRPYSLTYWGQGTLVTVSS VL: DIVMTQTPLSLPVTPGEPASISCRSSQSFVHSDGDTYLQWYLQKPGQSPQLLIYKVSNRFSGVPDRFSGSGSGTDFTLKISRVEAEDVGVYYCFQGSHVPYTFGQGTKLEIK; 2.45
3) hAb006LH1L1b (antibody, human IgG1, V domains shown) VH: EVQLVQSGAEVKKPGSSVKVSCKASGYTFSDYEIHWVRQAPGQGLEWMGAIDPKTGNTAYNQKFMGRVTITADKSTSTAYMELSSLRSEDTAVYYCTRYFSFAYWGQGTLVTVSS VL: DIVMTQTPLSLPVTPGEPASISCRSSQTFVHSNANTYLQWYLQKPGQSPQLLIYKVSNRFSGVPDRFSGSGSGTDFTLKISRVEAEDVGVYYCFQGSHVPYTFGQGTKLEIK; 2.77
4) hAb005LH1L1a (antibody, human IgG1, V domains shown) VH: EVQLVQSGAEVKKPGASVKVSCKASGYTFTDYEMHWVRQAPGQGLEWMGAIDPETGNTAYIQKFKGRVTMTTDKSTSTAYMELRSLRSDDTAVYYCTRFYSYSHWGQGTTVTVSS VL: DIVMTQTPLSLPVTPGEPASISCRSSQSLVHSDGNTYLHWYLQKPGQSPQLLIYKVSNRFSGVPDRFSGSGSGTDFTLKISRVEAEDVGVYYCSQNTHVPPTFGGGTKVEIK; 0.578
5) hAb007LH1L1a (antibody, human IgG1, V domains shown) VH: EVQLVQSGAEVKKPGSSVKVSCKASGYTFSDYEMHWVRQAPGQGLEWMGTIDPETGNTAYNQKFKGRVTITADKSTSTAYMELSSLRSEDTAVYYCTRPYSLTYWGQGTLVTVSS VL: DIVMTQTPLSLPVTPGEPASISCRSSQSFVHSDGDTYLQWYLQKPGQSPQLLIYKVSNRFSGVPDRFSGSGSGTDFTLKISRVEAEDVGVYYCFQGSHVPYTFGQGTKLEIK; 2.36

Where these numbers come from: patent US20260116991A1
